So I've got a bunch of compounds here, and I need their IC50 values.
- assayed_system: HIV integrase (Human immunodeficiency virus type 1 group M subtype B, UniProt P12497, F1332H)
- Construct: HIV integrase full length gene (J. Virol., 67, 425-437 (1993)) in which phenylalanine at codon 185 was substituted by histidine
- experiment_description: Determination of enzyme (HIV integrase) inhibitory activity
- test_context: recombinant integrase protein (F185H), donor DNA/target DNA, absorbance at 450 nm
The reply should contain only the number, in nM.

So what's the measured IC50 for this one? CC(C)[C@@H](CO)n1cc(C(=O)O)c(=O)c2cc(Cc3cccc(Cl)c3F)c(N3CCNC(=O)C3)cc21 6

Can you handle CC(C)[C@@H](CO)n1cc(C(=O)O)c(=O)c2cc(Cc3cccc(Cl)c3F)c(N3CC[C@H](O)C3)cc21 next? 12

Can you handle CC(C)[C@@H](CO)n1cc(C(=O)O)c(=O)c2cc(Cc3cccc(Cl)c3F)c(N3CCN[C@H](C)C3)cc21 next? 5.1

Can you handle COc1cc2c(cc1Cc1c(O)ccc(Cl)c1F)c(=O)c(C(=O)O)cn2[C@H](CO)C(C)C next? 7.8

Can you handle COc1cc2c(cc1Cc1cc(O)cc(Cl)c1F)c(=O)c(C(=O)O)cn2[C@H](CO)C(C)C next? 4.6

Can you handle CC(C)[C@@H](CO)n1cc(C(=O)O)c(=O)c2cc(Cc3cccc(Cl)c3F)c(OCc3cccnc3)cc21 next? 4.9

Can you handle CC(C)[C@@H](CO)n1cc(C(=O)O)c(=O)c2cc(Cc3cccc(Cl)c3F)c(OCc3ccccc3)cc21 next? 6.4

----------
- assayed_system: HIV integrase (Human immunodeficiency virus type 1 group M subtype B, UniProt P12497, F1332H)
- Construct: HIV integrase full length gene (J. Virol., 67, 425-437 (1993)) in which phenylalanine at codon 185 was substituted by histidine; made in house; host or cells: Escherichia coli BL21(DE3)
- experiment_description: Determination of enzyme (HIV integrase) inhibitory activity
- Format: biochemical
- test_context: recombinant integrase protein (F185H), donor DNA/target DNA, absorbance at 450 nm
Structures can show the parent of a compound that is named as a salt.
So I've got a bunch of molecules here, and I need their IC50 values.
The reply should contain only the number, in nM.

So what's the measured IC50 for this one? CC(C)[C@@H](CO)n1cc(C(=O)O)c(=O)c2cc(Cc3cccc(Cl)c3F)c(OCS(N)(=O)=O)cc21 6.6

Can you handle CC(C)[C@@H](CO)n1cc(C(=O)O)c(=O)c2cc(Cc3cccc(Cl)c3F)c3c(c21)OCCO3 next? 5.9

Can you handle CC(C)[C@@H](CO)n1cc(C(=O)O)c(=O)c2cc(Cc3cccc(Cl)c3F)c(OCCN3CCNCC3)cc21 [Example 4-33, dihydrochloride] next? 5.7

Can you handle CC(C)[C@@H](CO)n1cc(C(=O)O)c(=O)c2cc(Cc3cccc(Cl)c3F)cc(OCCCO)c21 next? 4.7

Can you handle CC(C)(C)[C@@H](CO)n1cc(C(=O)O)c(=O)c2cc(Cc3cccc(Cl)c3F)c(N3CCOCC3)cc21 next? 4.3

Can you handle CC(C)[C@@H](CO)n1cc(C(=O)O)c(=O)c2cc(Cc3cccc(Cl)c3F)c(OCS(=O)(=O)N(C)C)cc21 next? 4.5

Can you handle COCCCOc1cc2c(cc1Cc1cccc(Cl)c1F)c(=O)c(C(=O)O)cn2[C@H](CO)C(C)C next? 4.7

----------
- assayed_system: HIV integrase (Human immunodeficiency virus type 1 group M subtype B, UniProt P12497, F1332H)
- Construct: HIV integrase full length gene (J. Virol., 67, 425-437 (1993)) in which phenylalanine at codon 185 was substituted by histidine
- experiment_description: Determination of enzyme (HIV integrase) inhibitory activity
- test_context: recombinant integrase protein (F185H), donor DNA/target DNA, absorbance at 450 nm
Where a name gives a salt, the structure may show the parent alone.
observable: pIC50
Keep in mind that pIC50 stands for -log10 of concentration in molar terms.

So what's the measured pIC50 for this one? CC(C)[C@@H](CO)n1cc(C(=O)O)c(=O)c2cc(Cc3cccc(Cl)c3F)c(OCc3ccccn3)cc21 8.44

Can you handle CC(C)([C@@H](CO)n1cc(C(=O)O)c(=O)c2cc(Cc3cccc(Cl)c3F)ccc21)S(C)(=O)=O next? 8.38

Can you handle CC(C)[C@@H](CO)n1cc(C(=O)O)c(=O)c2cc(Cc3cccc(Cl)c3F)cc(OCCN(C)C)c21 next? 7.96

Can you handle COc1cc2c(cc1Cc1cccc(Cl)c1Cl)c(=O)c(C(=O)O)cn2[C@H](CO)C(C)C next? 8.35

Can you handle CC(C)[C@@H](CO)n1cc(C(=O)O)c(=O)c2cc(Cc3cccc(Cl)c3F)c(OCC(=O)N(C)C)cc21 next? 8.30

Can you handle COc1cc2c(cc1Cc1ccc(F)cc1C(F)(F)F)c(=O)c(C(=O)O)cn2[C@H](CO)C(C)C next? 6.55

Can you handle CCOC(=O)N1CCC(Nc2cc3c(cc2Cc2cccc(Cl)c2F)c(=O)c(C(=O)O)cn3[C@H](CO)C(C)C)CC1 next? 8.17

Can you handle CC(C)[C@@H](CO)n1cc(C(=O)O)c(=O)c2cc(Cc3cccc(Cl)c3F)c(OCCO)cc21 next? 8.46

Can you handle CC(C)[C@@H](CO)n1cc(C(=O)O)c(=O)c2cc(Cc3cccc(Cl)c3F)cc(OCCCCO)c21 next? 8.20

Can you handle CC(=O)N1CCN(c2cc3c(cc2Cc2cccc(Cl)c2F)c(=O)c(C(=O)O)cn3[C@H](CO)C(C)C)CC1 next? 8.17

Can you handle CC(C)[C@@H](CO)n1cc(C(=O)O)c(=O)c2cc(Cc3cccc(Cl)c3F)c(OCc3ccc(S(N)(=O)=O)cc3)cc21 next? 8.44

Can you handle CSC[C@@H](CO)n1cc(C(=O)O)c(=O)c2cc(Cc3cccc(Cl)c3F)ccc21 next? 8.09

Can you handle COC[C@@H](CO)n1cc(C(=O)O)c(=O)c2cc(Cc3cccc(Cl)c3F)ccc21 next? 7.89

Can you handle CC(C)[C@@H](CO)n1cc(C(=O)O)c(=O)c2cc(Cc3cccc(Cl)c3F)c(OC3CCOCC3)cc21 next? 8.27

Can you handle COc1cc2c(cc1Cc1ccc(O)c(Cl)c1F)c(=O)c(C(=O)O)cn2[C@H](CO)C(C)C next? 7.60

Can you handle CC(=O)N[C@@H]1CCN(c2cc3c(cc2Cc2cccc(Cl)c2F)c(=O)c(C(=O)O)cn3[C@H](CO)C(C)C)C1 next? 7.80

Can you handle CS(=O)(=O)CC[C@@H](CO)n1cc(C(=O)O)c(=O)c2cc(Cc3cccc(Cl)c3F)ccc21 next? 7.85

Can you handle COc1cc2c(cc1Cc1c(F)cccc1Cl)c(=O)c(C(=O)O)cn2[C@H](CO)C(C)C next? 7.77

Can you handle CC(C)[C@@H](CO)n1cc(C(=O)O)c(=O)c2cc(Cc3cccc(Cl)c3F)c(OCCN3CCOCC3)cc21 next? 8.10

Can you handle COCCCCOc1cc(Cc2cccc(Cl)c2F)cc2c(=O)c(C(=O)O)cn([C@H](CO)C(C)C)c12 next? 8.40

Can you handle COC[C@@H](CO)n1cc(C(=O)O)c(=O)c2cc(Cc3cccc(Cl)c3F)c(OC)cc21 next? 8.22

Can you handle CC(C)[C@@H](CO)n1cc(C(=O)O)c(=O)c2cc(Cc3cccc(Cl)c3F)c(OCCCO)cc21 next? 8.44

Can you handle CC(C)[C@@H](CO)n1cc(C(=O)O)c(=O)c2cc(Cc3cccc(Cl)c3F)cc(O)c21 next? 8.40

Can you handle CC(C)[C@@H](CO)n1cc(C(=O)O)c(=O)c2cc(Cc3cccc(Cl)c3F)c(O[C@H]3CCN(C)C3)cc21 [Example 4-54, trifluoroacetate] next? 8.15

Can you handle CC(C)[C@@H](CO)n1cc(C(=O)O)c(=O)c2cc(Cc3cccc(Cl)c3F)c(OCCCCO)cc21 next? 8.47

Can you handle COCCOc1cc(Cc2cccc(Cl)c2F)cc2c(=O)c(C(=O)O)cn([C@H](CO)C(C)C)c12 next? 8.35

Can you handle CC1CN(c2cc3c(cc2Cc2cccc(Cl)c2F)c(=O)c(C(=O)O)cn3[C@H](CO)C(C)C)CC(C)O1 (stereo partly shown) next? 7.89

Can you handle CC(C)[C@@H](CO)n1cc(C(=O)O)c(=O)c2cc(Cc3cccc(Cl)c3F)c(O[C@@H]3CCN(C)C3)cc21 [Example 4-55, trifluoroacetate] next? 8.12

----------
So I've got a bunch of molecules here, and I need their IC50 values.
- assayed_system: HIV integrase (Human immunodeficiency virus type 1 group M subtype B, UniProt P12497, F1332H)
- Construct: HIV integrase full length gene (J. Virol., 67, 425-437 (1993)) in which phenylalanine at codon 185 was substituted by histidine
- experiment_description: Determination of enzyme (HIV integrase) inhibitory activity
- test_context: recombinant integrase protein (F185H), donor DNA/target DNA, absorbance at 450 nm
Counter-ions that a name gives are not always drawn.
The reply should contain only the number, in nM.

So what's the measured IC50 for this one? CC(C)[C@@H](CO)n1cc(C(=O)O)c(=O)c2cc(Cc3cccc(Cl)c3F)c(N3CC[C@H](N)C3)cc21 12

Can you handle COc1cc2c(cc1Cc1cccc(Cl)c1F)c(=O)c(C(=O)O)cn2[C@H](CO)CCS(C)(=O)=O next? 6.9

Can you handle CC(C)[C@@H](CO)n1cc(C(=O)O)c(=O)c2cc(Cc3cccc(Cl)c3F)c(OCCCN(C)C)cc21 next? 6.3

Can you handle CC(C)[C@@H](CO)n1cc(C(=O)O)c(=O)c2cc(Cc3cccc(Cl)c3F)c(OCCCCN)cc21 [Example 4-34, hydrochloride] next? 3.9

Can you handle CC(C)[C@@H](CO)n1cc(C(=O)O)c(=O)c2cc(Cc3cccc(Cl)c3F)c(OCCN(C)C)cc21 next? 6

Can you handle COc1cc2c(cc1Cc1ccc(F)c(Cl)c1)c(=O)c(C(=O)O)cn2[C@H](CO)C(C)C next? 19

Can you handle CCN1CCN(c2cc3c(cc2Cc2cccc(Cl)c2F)c(=O)c(C(=O)O)cn3[C@H](CO)C(C)C)CC1 next? 11

Can you handle CSCC[C@@H](CO)n1cc(C(=O)O)c(=O)c2cc(Cc3cccc(Cl)c3F)ccc21 next? 5.8

Can you handle CC(=O)N1CCC(Oc2cc3c(cc2Cc2cccc(Cl)c2F)c(=O)c(C(=O)O)cn3[C@H](CO)C(C)C)CC1 next? 13

Can you handle COc1cc2c(cc1Cc1cccc(Cl)c1F)c(=O)c(C(=O)O)cn2[C@H](CO)CSC next? 6.8

Can you handle CC(C)[C@@H](CO)n1cc(C(=O)O)c(=O)c2cc(Cc3cccc(Cl)c3F)c(N3CC[C@@H](N)C3)cc21 next? 9.4

Can you handle CC(C)[C@@H](CO)n1cc(C(=O)O)c(=O)c2cc(Cc3cccc(Cl)c3F)c(O[C@@H]3CCNC3)cc21 [Example 4-37, hydrochloride] next? 4.4

Can you handle COc1cc2c(cc1Cc1c(F)cccc1C(F)(F)F)c(=O)c(C(=O)O)cn2[C@H](CO)C(C)C next? 260

Can you handle COCCCOc1cc(Cc2cccc(Cl)c2F)cc2c(=O)c(C(=O)O)cn([C@H](CO)C(C)C)c12 next? 4.7

Can you handle CC(C)[C@@H](CO)n1cc(C(=O)O)c(=O)c2cc(Cc3cccc(Cl)c3F)c(O)cc21 next? 3.2
